Source: PubChem BioAssay (NCI)

Can you tell me growth inhibition for the items I'm about to list?
- protocol.summary: NCI Yeast Anticancer Drug Screen. Data for the sgs1 mgt1 strain (AID 161);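 further: 0% = growth of cultures given vehicle only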
- experimental.setup: S. cerevisiae sgs1 mgt1 strain, at 50.0 µM, active compounds read high
About 79,000 compounds went through this panel and 15% of them were active in at least one assay; those are over-represented in the sample as a whole.
Lab book: enter the figure in %, no units written.

// lookup growth inhibition for CC1=C(C)C2C3C(=O)NC(=O)C3C1C1C3C(=O)NC(=O)C3C21 (stereo unspecified) 7.3

// lookup growth inhibition for "CSC(SC)=C1Sc2cccc(Cl)c2S1" 29.2

// lookup growth inhibition for "CN(C)Cc1cc(C(=O)c2ccccc2)c(O)cc1O" -0.9

// lookup growth inhibition for "NS(=O)(=O)c1ccc(NO)cc1" 6.3

// lookup growth inhibition for "Cc1cc([N+](C)(C)C)c(C(C)C)cc1O" 6.25

// lookup growth inhibition for "O=C1C=C(Nc2ccccc2C(=O)c2ccccc2)c2ccccc2C1=O" 6.65

// lookup growth inhibition for "CCCCCCCCSc1nc2ccc(N=Cc3ccccc3O)cc2s1" 73.3

// lookup growth inhibition for c1ccc(Sc2cccc3c(-c4ccccc4)c4cccc5c4c(c23)C[S+]5c2ccccc2)cc1 (stereo unspecified) 99.2

// lookup growth inhibition for "COc1cc(/C=C(\C#N)C(N)=O)cc(Br)c1O" 15.9

// lookup growth inhibition for CC1CCC(CC(N)=O)C1(C)C (stereo unspecified) 2.75

// lookup growth inhibition for "COc1ccc2c(CC(=O)O)cc(=O)oc2c1" 15.4

// lookup growth inhibition for COc1ccc(N2C(=O)C3CC(c4ccc(Br)cc4)c4c([nH]c5ccccc45)C3C2=O)cc1 (stereo unspecified) 5.55

// lookup growth inhibition for "CCN(CC)C(=O)c1ccc[n+](CCC(N)=O)c1" -3

// lookup growth inhibition for "O=C(O)/C=C\C(=O)Nc1ccc2c(c1)-c1ccccc1C2" -14.6

// lookup growth inhibition for "c1cnc2[nH]cnc2n1" -3.3

// lookup growth inhibition for CCNCC(OC)C(COC)OC(=O)c1ccc([N+](=O)[O-])cc1 (stereo unspecified) -7.65

// lookup growth inhibition for "O=C(C1=Cc2ccccc2OC1)N1CCN(c2ccccc2Cl)CC1" 34.6

// lookup growth inhibition for "CCCC1(C)COC(=O)OC1" 17.5

// lookup growth inhibition for "Cc1cc(Cl)cc(C(=O)O)c1O" 0.1

// lookup growth inhibition for "CCO/C=C1/N=C(c2ccccc2Cl)OC1=O" -1.05

// lookup growth inhibition for "O=C(NCCN1CCCCC1)C(O)(C1CCCCC1)C1CCCCC1" 12.2

// lookup growth inhibition for CN1CCC(c2ccccc2)(c2ccccc2)OC1c1ccccc1 (stereo unspecified) -7.85

// lookup growth inhibition for "CC(=O)CC(=O)N1CCCCCC1" 0.5

// lookup growth inhibition for "Cc1ccc(S(=O)(=O)CC(=O)NC(N)=O)cc1" -5.2

// lookup growth inhibition for "Cc1ccc2ccc(=O)oc2c1" 2.85

// lookup growth inhibition for "CN/N=C(/Cc1occc(=O)c1O)C(=O)Nc1ccc(C)c(C)c1" -16.7
